Assay: plasma pharmacokinetics after single i.v. and p.o. administration, NCA
Type: in vivo, mice
Settings: male, C57BL/6, mouse, iv; mice, plasma, single 2.0 mg/kg BW i.v., NCA
MEASURED_ATTRIBUTE: AUC(0-inf) (ng·h/mL)
Please state the figure in ng·h/mL; there is no need to write the unit.

What value of measured AUC(0-inf) is listed for C=C[C@@](C)(O)CC[C@H]1C(=C)C[C@H](OC(=O)NC)[C@H]2C(C)(C)CCC[C@]12C ?
351

###

Assay: plasma pharmacokinetics after single i.v. and p.o. administration, NCA
Assay type: in vivo, mice
Conditions: male, C57BL/6, mouse, iv; mice, plasma, single 20 mg/kg BW i.v., NCA
MEASURED_ATTRIBUTE: MRT (h)
Please state the figure in h; there is no need to write the unit.

What value of measured MRT is listed for C=C[C@@](C)(O)CC[C@H]1C(=C)C[C@H](OC(=O)NC)[C@H]2C(C)(C)CCC[C@]12C [SH045] ?
1.52

###

Experiment: plasma pharmacokinetics after single i.v. and p.o. administration, NCA
Assay type: in vivo, mice
Conditions: male, C57BL/6, mouse, po; mice, plasma, single 20 mg/kg BW p.o., NCA; read-out: Vz/F
MEASURED_ATTRIBUTE: Vd/F

What value of measured Vd/F is listed for C=C[C@@](C)(O)CC[C@H]1C(=C)C[C@H](OC(=O)NC)[C@H]2C(C)(C)CCC[C@]12C [SH045] ?
171 L/kg

###

Experiment: tissue distribution after single and repeated administration
Assay type: in vivo, mice
Conditions: male, C57BL/6, mouse, brain, iv, 20 mg/kg, 24 h after repeated (5 days, once a day) 20 mg/kg BW i.v.; mean ± SEM; read-out: Concentration, Brain
MEASURED_ATTRIBUTE: concentration at 24 h (ng/g)
Please state the figure in ng/g; there is no need to write the unit.

What value of measured concentration at 24 h is listed for C=C[C@@](C)(O)CC[C@H]1C(=C)C[C@H](OC(=O)NC)[C@H]2C(C)(C)CCC[C@]12C [SH045] ?
19.6

###

Assay: tissue distribution after single and repeated administration
Assay type: in vivo, mice
Conditions: male, C57BL/6, mouse, liver, iv, 20 mg/kg, 24 h after repeated (5 days, once a day) 20 mg/kg BW i.v.; mean ± SEM; read-out: Concentration, Liver
MEASURED_ATTRIBUTE: concentration at 24 h (ng/g)
Please state the figure in ng/g; there is no need to write the unit.

What value of measured concentration at 24 h is listed for C=C[C@@](C)(O)CC[C@H]1C(=C)C[C@H](OC(=O)NC)[C@H]2C(C)(C)CCC[C@]12C [SH045] ?
17.5

###

Experiment: NADPH-dependent microsomal conversion, Michaelis-Menten kinetics (MLM)
Type: in vitro ADME, mouse
Details: mouse, mouse liver microsomes, MLM 0.5 mg/mL protein, SH045 0.5 to 100 µM, Lineweaver-Burk
MEASURED_ATTRIBUTE: Km at 10 min
Answer by giving the amount and then stating its unit.

What value of measured Km at 10 min is listed for C=C[C@@](C)(O)CC[C@H]1C(=C)C[C@H](OC(=O)NC)[C@H]2C(C)(C)CCC[C@]12C [SH045] ?
48.4 µM
